Consider the following molecules; for each one, report its Metabolic stability (Qh %), % hepatic blood flow.
# procedure.summary: Human liver microsome (HLM) metabolic stability assay
# Format: in vitro ADME
# protocol.conditions: human liver microsomes

Take a look at these entries with their results.
INSERT INTO measurements (molecule, result) VALUES
  ('COC[C@H]1N(c2cccc(-c3cccc(C)c3OCc3cc(C)c4c(c3)CCN(C3CCOC3)C4)n2)C[C@@H]2C[C@@]21C(=O)O (stereo partly drawn) [Compound 50]', '26%'),
  ('COC[C@H]1N(c2cccc(-c3cccc(C)c3OCc3cc(C#N)c4c(c3)CCN(C3CCOCC3)C4)n2)C[C@@H]2C[C@@]21C(=O)O', '44%'),
  ('COCc1cc(COc2c(C)cccc2-c2cccc(N3CC[C@H](C(=O)O)[C@H](OC)C3)n2)cc2c1CN(C1CCOCC1)CC2', '<24%');

I need Metabolic stability (Qh %), % hepatic blood flow for every entry listed below, if you could help.
1. COC[C@H]1N(c2cccc(-c3cccc(C)c3OCc3ccc4c(c3)CN(C3CCOCC3)CC4)n2)C[C@@H]2C[C@@]21C(=O)O
2. COC[C@@H]1N(c2cccc(-c3cccc(C)c3OCc3cc(C)c4c(c3)CCN(C3CCOCC3)C4)n2)C[C@@H]2C[C@@]21C(=O)O
3. COC[C@H]1N(c2cccc(-c3cccc(C)c3OCc3ccc4c(c3)CCN(C3COC3)C4)n2)C[C@@H]2C[C@@]21C(=O)O

Key:
["31%", "<24%", "<24%"]

Go through the list and state Metabolic stability (Qh %), % hepatic blood flow for each entry.
1. CO[C@@H]1CN(c2nc(-c3cccc(C)c3OCc3ccc4c(c3C)CCN(C3CCOCC3)C4)cs2)CC[C@@H]1C(=O)O
2. Cc1ccc(OCc2ccc3c(c2)CCN(C2CCOC2)C3)c(-c2csc(N3CC[C@@]4(C(=O)O)C[C@H]4C3)n2)c1 (stereo partly drawn)
3. COC[C@H]1N(c2cccc(-c3cccc(C)c3OCc3cc(F)c4c(c3)CCN(C3CCOCC3)CC4)n2)C[C@@H]2C[C@@]21C(=O)O
4. CO[C@H]1CN(c2cccc(-c3cccc(C)c3OCc3ccc4c(c3C)CCN(C3COC3)C4)n2)CC[C@H]1C(=O)O
5. CO[C@@H]1CN(c2nc(-c3cccc(C)c3OCc3cc(F)c4c(c3)CCN(C3CCOCC3)CC4)cs2)CC[C@@H]1C(=O)O
6. Cc1cc(C)c(OCc2ccc3c(c2)CCN(C2CCOCC2)C3)c(-c2csc(N3C[C@@H]4C[C@]4(C(=O)O)C3)n2)c1
7. Cc1c(COc2ccccc2-c2cccc(N3CC[C@@]4(C(=O)O)C[C@H]4C3)n2)ccc2c1CCN(Cc1cncn1C)C2

Key:
1. <24%
2. <24%
3. <24%
4. 33%
5. <24%
6. <24%
7. 43%

Value sought for every listed molecule: Metabolic stability (Qh %), % hepatic blood flow.
1. COC[C@H]1N(c2nc(-c3cc(C)ccc3OCc3ccc4c(c3)CCN(C3CCOCC3)C4)cs2)C[C@@H]2C[C@@]21C(=O)O
2. Cc1c(COc2ccccc2-c2cccc(N3CC[C@@]4(C(=O)O)C[C@H]4C3)n2)ccc2c1CCN(C1CCC1)C2
3. CCO[C@@H]1CN(c2nc(-c3cccc(C)c3OCc3cc(C)c4c(c3F)CCN(C3CCOCC3)C4)cs2)CC[C@@H]1C(=O)O
4. Cc1cccc(-c2ccnc(N3C[C@@H]4C[C@]4(C(=O)O)C3)n2)c1OCc1ccc2c(c1C)CCN(C1CCOCC1)C2

Key:
1. <24%
2. 47%
3. 42.5%
4. <24%
